# TESTED TARGET: Cyclin-dependent kinase 2/cyclin E1 (Homo sapiens)
# ASSAY OVERVIEW: Inhibition of human full length recombinant C-terminal 6His-tagged CDK2/N-terminal GST-tagged cyclin E1 expressed in baculovirus-infected Sf21 cells using 5-FAM- QSPKKG peptide as substrate preincubated with enzyme and ATP for 30 mins followed by substrate addition and measured after 20 hrs by fluorescence- based microfluidic mobility shift assay
pIC50: −log10 of the molar value.
REPORTED METRIC: pIC50

See these solved cases before continuing.
CC(C)NC(=O)O[C@@H]1CC[C@H](c2cc(NC(=O)Cc3ccccc3S(C)(=O)=O)n[nH]2)C1 = ≥ 7.00
CC(C)NC(=O)O[C@@H]1CC[C@H](c2cc(NC(=O)c3ccnc4ncsc34)n[nH]2)C1 = ≥ 7.00

Challenge: Given the entry Cc1cc(CC(=O)Nc2cc([C@H]3CC[C@@H](OC(=O)N4CCC4(C)C)C3)[nH]n2)on1 , report its measured pIC50.
Response given: ≥ 7.00
